test system: 947758-054-R-J2-PDC spheroid growth, percent test/control; experiment: Anticancer human tumor 947758-054-R-J2-PDC patient-derived colon adenocarcinoma cell line growth inhibition [CLK]; details: second compound 1 µM; first compound 0.0316 µM; spheroids with HUVEC and MSC; active = viability on the fitted dose curve at most 10% of control; inactive = the rest
Assign a class; possible classes are active, inactive

Request: Status in this test for CC(=O)O[C@H]1C(=O)[C@@]2(C)[C@H]([C@H](OC(=O)c3ccccc3)[C@]3(O)C[C@H](OC(=O)[C@H](O)[C@@H](NC(=O)c4ccccc4)c4ccccc4)C(C)=C1C3(C)C)[C@]1(OC(C)=O)CO[C@@H]1C[C@@H]2O + CNC(=O)c1ccc(Nc2nc(OC3CCCC3)c3c(-c4ccc5nc(C)oc5c4)c[nH]c3n2)c(OC)c1 ?
Result: inactive

Request: Next up: O=c1[nH]cc(F)c(=O)[nH]1 + CNC(=O)c1ccc(Nc2nc(OC3CCCC3)c3c(-c4ccc5nc(C)oc5c4)c[nH]c3n2)c(OC)c1
Result: inactive

Request: Next up: C=CC(=O)N1CCN(c2nc(=O)n(-c3c(C)ccnc3C(C)C)c3nc(-c4c(O)cccc4F)c(F)cc23)C(C)C1 (stereo not given) + CNC(=O)c1ccc(Nc2nc(OC3CCCC3)c3c(-c4ccc5nc(C)oc5c4)c[nH]c3n2)c(OC)c1
Result: inactive

Request: Next up: O=C(c1cc(Cc2n[nH]c(=O)c3ccccc23)ccc1F)N1CCN(C(=O)C2CC2)CC1 + CNC(=O)c1ccc(Nc2nc(OC3CCCC3)c3c(-c4ccc5nc(C)oc5c4)c[nH]c3n2)c(OC)c1
Result: inactive

// next entry
Request: Status in this test for Nc1ccccc1NC(=O)c1ccc(CNC(=O)OCc2cccnc2)cc1 + CN1CCN(c2cc(C(=O)Nc3cc4cc(-c5cnn(C)c5)ccc4cn3)ccn2)CC1 ?
Result: active

* * *

test system: 947758-054-R-J2-PDC spheroid growth, percent test/control; assay: Anticancer human tumor 947758-054-R-J2-PDC cell line growth inhibition [CLK]; conditions: second compound 1 µM; first compound 1 µM; spheroids with HUVEC and MSC; active = viability on the fitted dose curve at most 10% of control; inactive = the rest;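 note: spheroids exposed to compounds for one week before readout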
Assign a class; possible classes are active, inactive

Some solved entries appear below for comparison.
Request: Status in this test for C=CC(=O)N1CCN(c2nc(=O)n(-c3c(C)ccnc3C(C)C)c3nc(-c4c(O)cccc4F)c(F)cc23)C(C)C1 (stereo not drawn) + CNC(=O)c1ccc(Nc2nc(OC3CCCC3)c3c(-c4ccc5nc(C)oc5c4)c[nH]c3n2)c(OC)c1 ?
Result: inactive

Request: Next up: COc1cccc2c1C(=O)c1c(O)c3c(c(O)c1C2=O)CC(O)(C(=O)CO)CC3OC1CC(N)C(O)C(C)O1 (stereo not drawn) + CNC(=O)c1ccc(Nc2nc(OC3CCCC3)c3c(-c4ccc5nc(C)oc5c4)c[nH]c3n2)c(OC)c1
Result: active

// next entry
Request: Status in this test for Nc1ccn(C2OC(CO)C(O)C2(F)F)c(=O)n1 (stereo not drawn) + CN1CCN(c2cc(C(=O)Nc3cc4cc(-c5cnn(C)c5)ccc4cn3)ccn2)CC1 ?
Result: active
